The reported measurements were obtained from PubChem BioAssay (NCI).

Provide the reported GI50 of each item.
tested on: CAKI-1 renal; experiment: NCI tumour cell line growth inhibition, 48 h

Entry under review: COc1ccc(-c2c[nH]c(=S)n2-c2ccc(OC)cc2)cc1 . Reported GI50?
> 50 µM

Record: Cn1cc(C2=C(c3cn(CCCCCN)c4ccccc34)C(=O)NC2=O)c2ccccc21
8.25 µM

Record: COc1cc2c3c(n(CCCN(C)C)c(=O)c2cc1OC)-c1ccccc1C3=O
12.7 µM

Record: Cc1cc(I)cc(CN(C)CCCN2CCOCC2)c1O
29.4 µM

Record: O=C(Nc1ccc(Br)cc1)c1ccc(Cl)c(Cl)c1
1.51 µM

Record: Cc1cn2c(/C=C3\C(=O)N(C)c4ccc(O)cc43)c(C)nc2s1
5.13 µM

====

tested on: SK-MEL-28 melanoma; assay: NCI tumour cell line growth inhibition, 48 h; in the data active = GI50 below about 0.43 µM; inactive = the rest
Outcomes you can answer with include only these: y = active, n = inactive

Call for entry COc1ccc2ncn(-c3cc(O[C@H](C)c4ccccc4Cl)c(C(N)=O)s3)c2c1 :
y

Record: CCn1c(CO)nn(-c2cc(O[C@@H](C)C(F)(F)F)c(C(=O)Nc3c(F)cccc3Cl)cc2F)c1=O
n

Record: COc1ccc(-c2ccc(/C=N/n3c(C)n[nH]c3=S)o2)c([N+](=O)[O-])c1
n

Record: N.N.N.N.[Cl-].[Co+3].[N-]=[N+]=[N-].[N-]=[N+]=[N-]
n

Record: C1C[OH+]CCNCC[OH+]CC[OH+]CCN1.[Cl-].[Pt+4]
n

Record: COc1cccc(/C(COc2ccc3c(c2)oc(=O)c2cc(OC)ccc23)=N/O)c1
n

Record: N#C/C(=C/N1CCN(C(=O)c2ccco2)C1=S)C(=O)c1ccccc1
n

====

system: OVCAR-4 ovarian; assay: NCI tumour cell line growth inhibition, 48 h
Provide the reported TGI of each item.

Entry under review: O=c1[nH]c2cc(Cl)ccc2nc1/C(=N\O)C(O)c1ccc(Cl)cc1Cl (stereo not drawn) . Reported TGI?
> 100 µM

Record: O=c1c2c([N+](=O)[O-])cccc2nc2[nH]c3ccccc3n12
23.9 µM

Record: CN(CCCNC(=O)Cc1ccc2ccc3cccc4ccc1c2c34)CCCNc1cc(-c2ccc3ccccc3c2)nc2ccccc12
2.78 µM

Record: O=C(OCC1OC2OC(c3ccccc3)(n3ccc4c([N+](=O)[O-])ccnc43)OC2C1OC(=O)c1ccccc1)c1ccccc1 (stereo not drawn)
> 100 µM

Record: Cc1cc[c-]cc1.Fc1c[c-]c(-c2ccccn2)c(F)c1.[Pt+2].c1ccc(P(C[PH+](c2ccccc2)c2ccccc2)c2ccccc2)cc1
9.4 µM

Record: CC(=O)OC1CC2C(C)(C)OC(=O)CC(OC(C)=O)[C@]2(C)C2CCC3(C)C(=CCC3[C@H]3COC(=O)C3)[C@]12C (stereo partly drawn)
> 100 µM

Record: N.N.N.N.[Cl-].[Co+3].[N-]=[N+]=[N-].[N-]=[N+]=[N-]
> 100 µM

Record: O=c1c2ncn(COCCCl)c2n(-c2ccccc2)c(=S)n1-c1ccccc1
> 100 µM

====

Provide the reported TGI of each item.
tested on: DLD-1 colon; assay: NCI tumour cell line growth inhibition, 48 h

Entry under review: COc1cccc(-n2c3nc(=O)n(C)c(=O)c-3nc3ccccc32)c1 . Reported TGI?
96.1 µM

Record: CN1NC(=Nc2ccccc2)Sc2c1cnn(-c1ccccc1)c2=O
> 100 µM

Record: C=C1C[C@]23CCC4C(C)(C)C(=O)CC[C@]4(C)C2C[C@H]1C(O)C3=O (some centres not stated)
> 75 µM

Record: CC1=NN(C(=O)CC(=O)N(C(=O)c2ccccc2Cl)c2ccc(C)cc2)C(=O)C1N=Nc1ccc([N+](=O)[O-])cc1 (configuration not stated)
> 66.1 µM

Record: C1C[OH+]CCNCC[OH+]CC[OH+]CCN1.[Cl-].[Pt+4]
> 100 µM

Record: Nc1ccn(C2(CO)C=C(CO)C(O)C2O)c(=O)n1 (configuration not stated)
> 25.8 µM

Record: COc1cc(C)c2c(c1C)OC(=O)c1c(C)c(Cl)c(O)c(C=O)c1O2
59 µM

Record: Cc1cc(C)c(C2[C@H]3C(=O)N(c4ccc(Cc5ccc(N6C(=O)[C@@H]7ON(c8ccccc8)C(c8c(C)cc(C)cc8C)[C@@H]7C6=O)cc5)cc4)C(=O)[C@H]3ON2c2ccccc2)c(C)c1 (some centres not stated)
> 100 µM

Record: COc1ccc2[nH]c3c4c(ccc3c2c1)C(=O)C=CC4=O
8.78 µM

Record: COC(=O)/C(C)=C/[N+](=O)[O-]
4.16 µM

Record: CC(C)CCCC(C)[C@H]1CCC2[C@H]3C(CC[C@@]21C)[C@@]1(C)CCC=C[C@]12C[C@@H]2[C@@H]3O (some centres not stated)
> 100 µM

Record: Cc1[nH]c(=O)[nH]c(=O)c1/C=C/C(=O)O
> 1000 µM

Record: COc1cc(CNc2ccc(SC)cc2)cc(OC)c1OC
> 100 µM

Record: NC1=NS(=O)(=O)Nc2nc(-c3ccc([N+](=O)[O-])cc3)[nH]c21
> 100 µM

Record: O=C(Nc1cc(Cl)ccc1Cl)C(=O)C(c1cnc2ccccc2n1)[N+](=O)[O-] (configuration not stated)
> 100 µM

Record: C[n+]1cc(C(O)c2ccc3c(c2)OCO3)c2ccccc2c1 (configuration not stated)
> 100 µM

Record: COC(=O)/C(C#N)=C1\CCC(O)N1 (configuration not stated)
> 100 µM

Record: NC1=NS(=O)(=O)Nc2nc(-c3ccc(Cl)cc3)c(-c3ccc(Cl)cc3)nc21
> 100 µM

Record: O=S1OC2(c3ccccc3-c3ccccc32)c2ccccc21 (configuration not stated)
> 100 µM

Record: COc1ccc(O)cc1
> 100 µM

Record: COC(=O)OCC1OC(N2C(=O)NC(=O)C(Br)C2N=[N+]=[N-])CC1OC(=O)OC (configuration not stated)
> 100 µM

Record: Cc1ccc(C2(O)CC(c3ccc([N+](=O)[O-])o3)=NN2C(=O)COc2ccc(Cl)cc2)cc1 (configuration not stated)
> 100 µM
